- Assay Target: Aromatase (Homo sapiens, UniProt P11511)
- Sequence (P11511 whole entry): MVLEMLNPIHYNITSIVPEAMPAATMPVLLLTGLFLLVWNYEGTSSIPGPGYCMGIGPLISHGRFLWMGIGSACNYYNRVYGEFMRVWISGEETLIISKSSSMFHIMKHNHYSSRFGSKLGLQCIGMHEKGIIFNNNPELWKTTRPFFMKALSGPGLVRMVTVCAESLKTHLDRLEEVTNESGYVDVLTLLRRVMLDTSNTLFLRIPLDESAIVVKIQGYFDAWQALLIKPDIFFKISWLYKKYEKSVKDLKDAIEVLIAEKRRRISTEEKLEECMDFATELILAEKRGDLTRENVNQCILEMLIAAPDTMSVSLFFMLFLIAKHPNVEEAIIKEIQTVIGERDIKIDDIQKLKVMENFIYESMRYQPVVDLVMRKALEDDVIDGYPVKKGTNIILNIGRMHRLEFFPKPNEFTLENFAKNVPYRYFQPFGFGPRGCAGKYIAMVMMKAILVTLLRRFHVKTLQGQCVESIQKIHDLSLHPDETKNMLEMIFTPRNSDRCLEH
Listed next: entries and their corresponding IC50.
State the answer as a number, implicitly in µM.

>  <Molecule>
C[C@]12CCC(=O)c3nn(C/C=C/c4ccccc4)c(c31)C[C@@H]1[C@@H]2CC[C@]2(C)C(=O)CC[C@@H]12

>  <IC50 [µM]>
0.951

$$$$
>  <Molecule>
C[C@]12CC[C@@H]3c4ccc(O)cc4[C@@H](c4ccccc4)C[C@H]3[C@@H]1CCC2=O

>  <IC50 [µM]>
1.4

$$$$
>  <Molecule>
C[C@@H]1C[C@@H]2[C@H](CC[C@]3(C)C(O)CC[C@@H]23)[C@@]2(C)CCCC=C12 (some centres not stated)

>  <IC50 [µM]>
3.7

$$$$
>  <Molecule>
C[C@]12CCC(=O)c3c1c(nn3Cc1ccccc1)C[C@@H]1[C@@H]2CC[C@]2(C)C(=O)CC[C@@H]12

>  <IC50 [µM]>
0.342

$$$$
>  <Molecule>
CCCC[C@H]1C[C@@H]2[C@H](CC[C@]3(C)C(=O)CC[C@@H]23)[C@@]2(C)C=CC(=O)C=C12

>  <IC50 [µM]>
0.2

$$$$

IN: So what does the record say about IC50 for Cc1ccc(S(=O)(=O)N2[C@@H]3[C@@H]4[C@H](CC[C@]5(C)C(=O)CC[C@@H]45)[C@@]4(C)CCC(=O)C=C4[C@@H]32)cc1 (some centres not stated) ?
OUT: 53.8

IN: So what does the record say about IC50 for C[C@]12CCC=CC1=CC(=O)[C@@H]1[C@@H]2CC[C@]2(C)C(O)CC[C@@H]12 (some centres not stated) ?
OUT: 42

* * *

- Assay Target: Aromatase (Homo sapiens, UniProt P11511)
pIC50: −log10 of the molar value.
Cut-off 5 on pIC50, inclusive. At or above means satisfied; below means not satisfied.

>  <Compound>
CC[C@H]1C[C@@H]2[C@H](CC[C@]3(C)C(O)CC[C@@H]23)[C@@]2(C)CCCC=C12 (stereo partly drawn)

>  <Assay Target>
Aromatase (Homo sapiens, UniProt P11511)

>  <Group Label>
satisfied

$$$$
>  <Compound>
CC(C)[C@@H]1C[C@@H]2[C@H](CC[C@]3(C)C(=O)CC[C@@H]23)[C@@]2(C)CCC(=O)C=C12

>  <Assay Target>
Aromatase (Homo sapiens, UniProt P11511)

>  <Group Label>
satisfied

$$$$
>  <Compound>
CCCCC1=C[C@@H]2[C@H](CC[C@]3(C)C(=O)CC[C@@H]23)[C@@]2(C)C=CC(=O)C=C12

>  <Assay Target>
Aromatase (Homo sapiens, UniProt P11511)

>  <Group Label>
satisfied

$$$$
>  <Compound>
COc1cc2c(cc1O)CC[C@@H]1[C@@H]2CC[C@]2(C)[C@@H](O)CC[C@@H]12

>  <Assay Target>
Aromatase (Homo sapiens, UniProt P11511)

>  <Group Label>
not satisfied

$$$$

IN: # check: pIC50 of CC[C@@H]1C[C@@H]2[C@H](CC[C@]3(C)C(=O)CC[C@@H]23)[C@@]2(C)CCCC=C12 is greater than or equal to 5
OUT: satisfied

IN: # check: pIC50 of C[C@]12CC[C@H]3[C@@H](C(=O)C=C4CCCC[C@@]43C=O)[C@@H]1CCC2=O is greater than or equal to 5
OUT: not satisfied

IN: # check: pIC50 of C[C@]12CCC(=O)C=C1[C@H](CCCc1ccccc1)C[C@@H]1[C@@H]2CC[C@]2(C)C(=O)CC[C@@H]12 is greater than or equal to 5
OUT: not satisfied

IN: # check: pIC50 of C[C@]12CC[C@H]3[C@@H](CC(=O)C4=CCCC[C@@]43CO)[C@@H]1CCC2=O is greater than or equal to 5
OUT: satisfied

* * *

Read-out record for Aromatase (Homo sapiens, UniProt P11511): IC50
State the answer as a number, implicitly in µM.

Consider the worked cases shown below.
>  <Compound>
C[C@]12CCC(=O)C=C1[C@H](c1ccccc1)C[C@@H]1[C@@H]2CC[C@]2(C)C(=O)CC[C@@H]12

>  <IC50 / µM>
1.7

$$$$
>  <Compound>
CCCCOC1=C[C@@]2(C)C(=CC1=O)CC[C@@H]1[C@@H]2CC[C@]2(C)C(=O)CC[C@@H]12

>  <IC50 / µM>
29.6

$$$$
>  <Compound>
C=C[C@]12CCC(=O)C=C1CC[C@@H]1[C@@H]2CC[C@]2(C)C(=O)CC[C@@H]12

>  <IC50 / µM>
0.1

$$$$
>  <Compound>
C[C@]12CC[C@H]3[C@@H](C=CC4=CC(=O)CC[C@@]43CCl)[C@@H]1CCC2=O

>  <IC50 / µM>
0.76

$$$$
>  <Compound>
CCCCC[C@H]1C[C@@H]2[C@H](CC[C@]3(C)C(=O)CC[C@@H]23)[C@@]2(C)C=CC(=O)C=C12

>  <IC50 / µM>
0.14

$$$$
>  <Compound>
CCCC[C@@H]1C[C@@H]2[C@H](CC[C@]3(C)C(=O)CC[C@@H]23)c2ccc(O)cc21

>  <IC50 / µM>
8.99

$$$$
>  <Compound>
C[C@]12CCC(=O)C=C1[C@H](N=[N+]=[N-])C(O)[C@@H]1[C@@H]2CC[C@]2(C)C(=O)CC[C@@H]12 (stereo partly specified)

>  <IC50 / µM>
47

$$$$
>  <Compound>
C[C@]12CC[C@H]3[C@@H](C[C@H]4O[C@]45C(=O)CCC[C@]35C=O)C1CCC2=O (stereo partly specified)

>  <IC50 / µM>
210

$$$$

IN: So what does the record say about IC50 for C[C@]12CCC(=O)C=C1CC[C@@H]1[C@@H]2CC[C@]2(C)C(=O)[C@H](O)C[C@@H]12 ?
OUT: 200

IN: So what does the record say about IC50 for C[C@]12CC[C@H]3[C@@H](CCC4=CC(=O)CC[C@@]43CO)[C@@H]1C[C@@H](O)[C@@H]2O ?
OUT: 2400

IN: So what does the record say about IC50 for C[C@]12CC[C@@H]3c4ccc(O)cc4[C@@H](Cc4ccccc4)C[C@H]3[C@@H]1CCC2=O ?
OUT: 3.5

IN: So what does the record say about IC50 for C[C@]12CC[C@@H]3C4CCCCC4=CC(=O)[C@H]3[C@@H]1CCC2=O (stereo partly specified) ?
OUT: 28

IN: So what does the record say about IC50 for CC[C@]12CCC(=O)C=C1CC[C@@H]1[C@@H]2CC[C@]2(C)C(=O)CC[C@@H]12 ?
OUT: 0.3

IN: So what does the record say about IC50 for C[C@]12CCC=CC1=CC[C@@H]1[C@@H]2CC[C@]2(C)C(O)CC[C@@H]12 (stereo partly specified) ?
OUT: 18

IN: So what does the record say about IC50 for CCCCCC[C@H]1C[C@@H]2[C@H](CC[C@]3(C)C(=O)CC[C@@H]23)[C@@]2(C)CCC(=O)C=C12 ?
OUT: 1

IN: So what does the record say about IC50 for C[C@]12CC[C@@H]3c4ccc(O)c(F)c4CC[C@H]3[C@@H]1CCC2=O ?
OUT: 26

* * *

- Assay Target: Aromatase (Homo sapiens, UniProt P11511)
Could you please mark t for values of IC50 below 4000 nM and f for values at or above it?

Known results for compounds:
>  <Compound>
C[C@]12CC[C@@H]3C4CCC(=O)C=C4C(=O)C[C@H]3[C@@H]1CCC2=O (some centres not stated)

>  <Group Label>
f

$$$$
>  <Compound>
CCCCCCCC(=O)O[C@@H]1C[C@@H]2[C@H](CC[C@]3(C)C(=O)CC[C@@H]23)[C@@]2(C)CCC(=O)C=C12

>  <Group Label>
t

$$$$
>  <Compound>
CC(=O)O[C@H]1C[C@@H]2[C@H](CC[C@]3(C)C(=O)CC[C@@H]23)[C@@]2(C)C=CC(=O)C=C12

>  <Group Label>
t

$$$$

IN: I wonder whether CCCO[C@@H]1C[C@@H]2[C@H](CC[C@]3(C)C(=O)CC[C@@H]23)[C@@]2(C)CCC(=O)C=C12 has IC50 below 4000 nM. Can you tell?
OUT: t

IN: I wonder whether COc1ccc([C@H]2NN=C3[C@@H]2C[C@H]2[C@@H]4CCC5=CC(=O)C=C[C@]5(C)[C@H]4CC[C@]32C)cc1 has IC50 below 4000 nM. Can you tell?
OUT: t

IN: I wonder whether C[C@]12CC[C@H](O)C[C@@H]1CC[C@@H]1[C@@H]2CC[C@]2(C)C3=NN(c4ccccc4)[C@H](c4ccccc4)[C@H]3C[C@@H]12 has IC50 below 4000 nM. Can you tell?
OUT: f
